Kindly supply the reported CAMK1G (STD-NMR hit flag) values for the records listed here.
Molecular target: CAMK1G (1-320) (Homo sapiens, UniProt Q96NX5)
Construct: made in house; host or cells: E. coli BL21 (DE3) pLysS
Sequence (Q96NX5 1-320): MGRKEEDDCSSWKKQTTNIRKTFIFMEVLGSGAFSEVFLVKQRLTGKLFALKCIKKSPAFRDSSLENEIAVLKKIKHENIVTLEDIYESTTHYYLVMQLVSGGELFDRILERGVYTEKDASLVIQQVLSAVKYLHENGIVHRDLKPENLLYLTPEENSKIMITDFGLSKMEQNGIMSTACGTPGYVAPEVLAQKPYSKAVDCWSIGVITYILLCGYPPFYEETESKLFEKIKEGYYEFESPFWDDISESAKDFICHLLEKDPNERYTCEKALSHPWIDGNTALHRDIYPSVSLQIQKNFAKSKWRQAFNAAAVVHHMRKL
Assay: STD-NMR fragment screening, CAMK1G
Format: binding
Conditions: 1 = hit, 0 = no hit
Description: All fragments were stored at −20°C as solids in argon flushed glass bottles. For NMR screening, fragments were weighed and dissolved in DMSO-d6 to a stock concentration of 300 mM. Mother plates were prepared with a 100 mM concentration. […] Fifteen of these compounds contain the same halogen twice. […] As fragment mixtures can lead to competitive effects between their fragments, it is not advised to use the quantification of peak mixtures for hit ranking.
No unit in the answer, only the number.

I'd like to know its CAMK1G (STD-NMR hit flag). The compound in question is O=C(O)c1cc(Br)c[nH]1 [Fragment B02291264] 0

Record: NCc1cc(Cl)cc(Cl)c1N [Fragment B02290090] 0

Moving on to Cc1n[nH]c(C(=O)O)c1Br [Fragment B02294483] 0

What about this compound? Clc1cscn1 [Fragment B02290477] 0

Consider next the compound COc1ccc(CN)c(Cl)c1 [Fragment B02290088] in the same way. 0

Try the compound O=C(O)c1nccc(Cl)c1Cl [Fragment B02290659] 0

Subsequent entry: Cc1onc(N)c1I [Fragment B02290521] 1

Now give it for Nc1ncc(C(F)(F)F)cc1Cl [Fragment B02291219] too. 1

Then Nc1cnccc1Br [Fragment B02297424] ? 1

Try O=C(O)c1cc(Br)c(O)cc1O [Fragment B02297413] next. 0

Now give it for O=C(O)C(=O)Nc1ccc(Cl)cn1 [Fragment B02290408] too. 0

What do you get for Nc1nn(CC(=O)O)cc1Br [Fragment B02291156] ? 0

Now the compound Fc1cc(C2CNCCN2)c(Cl)cc1Cl (centres unmarked) [Fragment B02297397] 0

Now consider Nc1ncc(C(=O)O)cc1Br [Fragment B02297655] . 0

Would you mind doing N#Cc1ccc(O)c(Cl)c1 [Fragment B02291257] as well? 0

Thanks! And Cn1c(Cl)cc(=O)n(C)c1=O [Fragment B02290465] ? 0

Nc1cccc(Br)c1O [Fragment B02289603] , same question. 0

====

Molecular target: AAK1 (121-471) (Homo sapiens)
Sequence (Q2M2I8 46-315 limits assumed): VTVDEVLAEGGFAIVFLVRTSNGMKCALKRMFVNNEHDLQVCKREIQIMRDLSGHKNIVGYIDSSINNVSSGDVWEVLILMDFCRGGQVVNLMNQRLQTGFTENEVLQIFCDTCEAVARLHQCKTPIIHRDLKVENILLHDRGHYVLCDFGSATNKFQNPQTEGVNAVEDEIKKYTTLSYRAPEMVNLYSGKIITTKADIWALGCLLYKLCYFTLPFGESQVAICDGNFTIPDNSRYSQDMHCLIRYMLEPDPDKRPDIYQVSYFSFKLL
Experiment: STD-NMR fragment screening, AAK1
Format: binding
Settings: 1 = hit, 0 = no hit
observation type: AAK1 (STD-NMR hit flag)
Answer with a bare number; do not write a unit.

What AAK1 (STD-NMR hit flag) value was documented for this compound, Nc1ncc(Br)cc1C(=O)O [Fragment B02289612] ? 0

Lookup O=C(O)c1cncc(Cl)n1 [Fragment B02289611] 0

Field entry: O=C(O)c1ncccc1Br [Fragment B02289614] 0

Field entry: COc1cc(Cl)cnc1OC [Fragment B02297394] 1

Now try O=C(O)c1sccc1Cl [Fragment B02297398] . 0

Now try O=C(c1ccc(Cl)cc1)N1CCOCC1 [Fragment B02297400] . 0

Request: O=c1[nH]cnc(O)c1Br [Fragment B02289618] 0

And Cn1c(=O)cc(Cl)[nH]c1=O [Fragment B02290524] ? 0

For O=C(O)c1ccncc1Br [Fragment B02297426] then? 0

Entry O=C(O)c1cc(Br)c[nH]c1=O [Fragment B02290523] please 0

Also need O=C(O)c1n[nH]cc1Br [Fragment B02290463] , thanks. 0

OCc1cc2c(cc1Cl)OCO2 [Fragment B02291235] , same question. 0

Param item: Brc1cnc(C2OCCO2)s1 [Fragment B02290407] 1

Same question, O=C(c1cc(Br)c[nH]1)N1CCOCC1 [Fragment B02290115] this time 0

Further, for COc1ncc(C(=O)O)cc1Cl [Fragment B02297423] ? 1

Now try Cc1c(Cl)cnc(N)c1Cl [Fragment B02297405] . 1

How about O=C(O)c1cc(Br)c(O)cc1O [Fragment B02297413] ? 1

Now try OC1CCN(c2cc(Cl)ncn2)CC1 [Fragment B02297410] . 1

And the next one, Cn1nc(Br)nc1NN [Fragment B02290120] ? 0

And what about the compound O=C(O)c1nccc(Cl)c1Cl [Fragment B02290659] ? 0

Further, for O=C(O)c1ccc(Cl)o1 [Fragment B02290466] ? 0

Also O=C(O)c1ccc(Br)cn1 [Fragment B02291245] , if possible. 0

Try the compound Brc1cccc2c1CNC2 [Fragment B02291212] 0

Clc1cnccn1 [Fragment B02291240] ? 0

Okay, and Cc1[nH]c(=O)[nH]c(=O)c1I [Fragment B02297420] ? 1

Quick one: Clc1ncccn1 [Fragment B02291224] 0

Also O=C(O)Cc1ccc(Cl)nc1 [Fragment B02291249] , if possible. 0

Same lookup for COc1ncc(Br)cc1C(=O)O [Fragment B02297396] , please. 0

What do you get for Brc1cnc(N2CCNCC2)nc1 [Fragment B02297422] ? 1

// next record Nc1ccc(Cl)c(C(=O)O)c1 [Fragment B02291260] 0

Please give the result for Nc1nn(CC(=O)O)cc1Br [Fragment B02291156] too. 0

Lookup CC(Cn1cc(Cl)cn1)C(=O)O (centres unmarked) [Fragment B02290481] 0

Continue with COc1cc(OC)nc(Cl)n1 [Fragment B02291246] 1

Follow-up entry: O=C1Nc2c(Cl)cccc2C1=O [Fragment B02290467] 0

Similarly, O=C(O)c1ccnc(Cl)c1 [Fragment B02291239] ? 0

Thanks! And Cn1ccc(Br)n1 [Fragment B02289620] ? 0

# repeat for Clc1ncnc2cc[nH]c12 [Fragment B02289595] 1

Proceed to Cc1ccc(C(=O)O)c(Cl)n1 [Fragment B02297428] 0

Record: Cc1cc(N)c(Br)cn1 [Fragment B02297406] 1

Next: COc1nc(N)ncc1I [Fragment B02289608] 1

Try this compound next: Brc1cnc(N2CCCNCC2)nc1 [Fragment B02290087] 0

// query: N#Cc1ccc(O)c(Cl)c1 [Fragment B02291257] 1

Subsequent entry: Nc1cccc(Br)c1O [Fragment B02289603] 0

Subsequent entry: CN(C)S(=O)(=O)n1nccc1Br [Fragment B02290660] 1

Param item: O=c1[nH]cc(Br)c(=O)[nH]1 [Fragment B02291248] 1

Thanks! And O=C1CCS(=O)(=O)c2ccc(Cl)cc21 [Fragment B02291253] ? 0

For Brc1cnn(-c2nnn[nH]2)c1 [Fragment B02290113] then? 1
